Attribution: patent US20180258175A1

Examples of binders with documented signal vs NO COMP=100 follow.
- tgt: T1, human CD115 extracellular domain (Sino Biological 10161-H08H) (human, UniProt P07333 20-517)
- T1 construct: extracellular domain; bought recombinant protein; also called huCD115; hu-CD115
- experiment: competition ELISA, competitor TMR 35A;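 note: clonal hybridoma supernatant antibodies added to wells after the competitor mouse antibody, lost binding signal puts an antibody in that competitor's epitope bin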;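 note: low signal means same epitope bin as the mouse competitor antibody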
Kindly answer with a numeric value in %, unit omitted.

binder	outputUnit	reportedResult
CCK-464A (antibody, V domains shown, AlivaMab chimeric IgG, human kappa LC) VH: EVQLVESGGGLVKPGGSLRLSCAASGFTFSSYNMNWVRQAPGKGLEWVSSISSSSTYIYYADSLKGRFTISRDNAMNSLYLQMSSLRAEDTAVYYCARDSGTYPYYYFGMDVWGQGTTVTVSS VL: DIQLTQSPSFLSASVGDRVTITCRASQGISSYLAWYQQKPGKAPKLLIYAASTLQSGVPSRFSGSGSGTEFTLTISSLQPEDFATYYCQQLNTYPRTFGQGTKVEIK	%	85

# get_value(readout='signal vs NO COMP=100', item= CCK-417A (antibody, V domains shown, AlivaMab chimeric IgG, human kappa LC) VH: QVTLRESGPALVKPTQTLTLTCTFSGFSLSTSGMCVSWIRQPPGKALECLALIDWDDDKYYSTSLKTRLTISKDTSKNQVVLTMTNMDPVDTATYYCARTQLGIADYWGQGTLVTVSS VL: AIRMTQSPSSFSASTGDRVTITCRASQGISSYLAWYQQKPGKAPKLLIYAASTLQSGVPSRFSGSGSGTDFTLTISCLQSEDFATYYCQQYYSYPFTFGPGTKVDIK ) 110

Dear colleague, I am looking for the recorded signal vs NO COMP=100 of the following binder: 429 (Table 4, bin 1C block) (antibody, V domains shown, not tied) VH: QVQLEQSGAEVKRPGASVKVSCKASGYTFTGYYMHWVRQAPGQGLEWMGWINPNRGDTNYAQKFQGRVTMTRDTSISTAYMELSRLRSDDTAVYYCARDLEGGGPFDYWGQGTLVTVSS VL: DIVMTQTPLSLPVTPGEPASISCRSSQSLLDSDDGNTYLDWYLQKPGQSPQLLIYTLSYRASGVPDRFSGSGSGTDFTLKISRVEAEDVGVYYCMQRIEFPSTFGQGTRLEIK 112

Entry under review: CCK-424A (antibody, V domains shown, AlivaMab chimeric IgG, human kappa LC) VH: QVQLQESGPGLVKPSETLSLTCTVSGGSISSYYWSWIRQPPGKVLEWIGYFSYNGNTNYNPSLKSRVTISVDTSKNQFSLKLSSVTAADTAVYYCTRGMDVWGQGTTVTVSS VL: DIQMTQSPSTLSASVGDRVTITCRASQSISDWLAWYLQKPGKAPKLLIYKASSLESGVPSRFSGSGSGTAFTLTISSLQPDDFATYYCQQYNSHWTFGQGTKVEIK . Reported signal vs NO COMP=100? 102

For CCK-421A (antibody, V domains shown, AlivaMab chimeric IgG, human kappa LC) VH: QVQLQESGPGLVKPSETLSLTCTVTGGSISSYYWSWIRQPAGKGLEWIGRIYTSGSTNYNPSLKSRVTMSVDTSKNHFSLKLSSVTAADTAVYYCAREILVVVAATRTGGVFDIWGQGTMVTVSS VL: DIQMTQSPSTLSASVGDRVTITCRASQSISSWLAWYQRKPGKAPKLLIYKASTLESGVPSRFSGSGSGTEFTLTISSLQPDDFATYYCQQFNSYWTFGQGTKVEIK , what is its reported signal vs NO COMP=100? 100
